Target: T1, cathepsin G (human, UniProt P08311 21-244)
T1 construct: cathepsin G, human; source: bought: Enzo Life Sciences
T1 sequence (looked up): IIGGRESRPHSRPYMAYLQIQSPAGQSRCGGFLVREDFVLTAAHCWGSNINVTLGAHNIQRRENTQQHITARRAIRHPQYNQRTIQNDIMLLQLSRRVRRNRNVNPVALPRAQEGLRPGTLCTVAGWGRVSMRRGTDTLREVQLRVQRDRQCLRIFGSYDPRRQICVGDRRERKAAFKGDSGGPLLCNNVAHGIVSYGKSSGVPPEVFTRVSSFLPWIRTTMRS
Experiment: enzyme inhibition assay (Ki from IC50 by Cheng and Prusoff); rSimukunin titrated against a constant concentration of enzyme, pre-incubated 5 min, fluorogenic peptidyl substrate 250 µM, 30°C; Ki calculated from the IC50 and the substrate's Km; estimated
Conditions: both partners purified
METRIC: pKi
Give bare numbers, as −log10 of the molar value.

What value of pKi has been recorded for this entry: recombinant Simukunin (rSV-66) (natural protein, Simulium vittatum, UniProt B5M0W4 20-102, looked up, SV-66 (Simukunin), Kunitz family salivary protein of the black fly Simulium vittatum; full-length ORF without signal peptide was cloned; numbers count on: the mature protein; pET-30 Ek/LIC vector; The purified protein ran as a doublet; also called rSimukunin; WT rSimukunin; source: E. coli BL21 (DE3), purified (Ni-NTA, RP-HPLC)) QENVCNLPVDEGVCRALFKRFYYEPATDSCKEFYYGGCEGNGNRFKSKKECILKCQKNKQLIKTRKRKPKKTTKPPIPIISLD 7.00
